Test system: SF-295 CNS
assay-protocol: NCI tumour cell line growth inhibition, 48 h; in the data active = GI50 below about 0.43 µM; inactive = the rest
Output constraint: value belongs to active, inactive

> print(dat)
                                   compound  class.name
1  COc1cccc(-c2cc(-c3cccc(NS(C)(=O)=O)c3)nc(N)c2C#N)c1O      active
2  CC(=O)OC1OC([C@@H]2c3cccc(O)c3C(=O)c3c(O)cc(C)cc32)C(O)C(O)C1O (stereo not given in full)      active
3  NC(N)=NS(=O)(=O)c1ccc(Nc2c3ccccc3nc3c(C(=O)NCCO)cccc23)cc1    inactive
4  NS(=O)(=O)OC[C@@H]1C[C@@H](n2ccc3c(NC4CCc5ccccc54)ncnc32)C[C@@H]1O (stereo not given in full)      active
5  CCN1/C(=C\c2cc[n+](CC)c3ccccc23)C=Cc2ccccc21      active
6  O=C(NC(=O)c1ccccc1[N+](=O)[O-])Nc1ccc(Oc2ncc(Br)cn2)c(Cl)c1      active

Give the logged outcome of this assay for the following compound: "O=C1NC(=NCCc2cccc(F)c2)S/C1=C\c1ccc2ncccc2c1"
inactive

Give the logged outcome of this assay for the following compound: "Cc1nc2sccn2c1-c1csc(Nc2ccccc2Cl)n1"
inactive

Give the logged outcome of this assay for the following compound: "Nc1ccccc1C#C/C=C\C#Cc1ccccc1OC(F)(F)F"
inactive

Give the logged outcome of this assay for the following compound: C=C(C)C(OC)C(O)CC1(C)CC(O)CC(C)(C2CCC3OC(C4(C)CCC(Br)C(C)(C)O4)CCC3(C)O2)O1 (stereo not given)
inactive

Every entry's value here was drawn from PubChem BioAssay (NCI).
